- TARGET: T1, PUF4 RNA-binding domain (Saccharomyces cerevisiae, UniProt P25339 537-888)
- T1 sequence: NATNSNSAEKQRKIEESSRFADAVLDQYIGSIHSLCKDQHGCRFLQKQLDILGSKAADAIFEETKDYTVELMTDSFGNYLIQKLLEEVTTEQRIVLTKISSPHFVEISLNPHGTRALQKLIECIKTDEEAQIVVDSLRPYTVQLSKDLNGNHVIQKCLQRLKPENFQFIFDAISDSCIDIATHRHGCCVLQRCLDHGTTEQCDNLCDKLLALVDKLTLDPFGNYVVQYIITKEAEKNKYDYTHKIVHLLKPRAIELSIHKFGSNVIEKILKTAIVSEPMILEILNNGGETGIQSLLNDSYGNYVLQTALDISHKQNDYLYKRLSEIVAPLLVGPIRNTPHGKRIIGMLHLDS
- ASSAY DETAILS: Mg; RNA-MaP; 20 mM Na-HEPES pH 7.4, 30 mM KOAc, 0.75 mM MgCl2, 0.1% Tween-20, 5% glycerol, 0.1 mg/mL BSA, 2 mM DTT; 25 C; 0.0125-409.6 nM protein
- EXPERIMENTAL CONTEXT: tags: N-His6-TEV cleaved; C-SNAP kept, Cy3B-labelled; label: tethered on chip by stalled RNA polymerase
pKd: −log10 of the molar value.
MEASURED ENDPOINT: pKd

BINDER: Ie_S4_P5E.1_K5.1_C5.1_H5.1_A5.1_[+6CT]_F5.1_T5.1 (ssRNA) RNA: UUUGACAACUGAUCGUUCUUUCUUGUAUUCUAUUAUUCUUUCUCGAUCAGUUGUCUUU
READOUT NUMBER: 8.65
--
BINDER: ACAAACAAUAUAUAUACGACAAAC (ssRNA) [Id_ii_S3_P3E.3_K3.2_C3.2_[C-2A]_[T-1A]_H3.2_A3.1_F3.1_T3.2_[T9C]_[A10G]]
READOUT NUMBER: 5.89
--
BINDER: Id_ii_S2_P3E.3_K3.2_C3.2_[C-2A]_[T-1C]_H3.2_A3.1_F3.1_T3.2_[T9G]_[A10C] (ssRNA) RNA: UUUGAUUAAUAUGAUAUCGUUCUUUCUACUAUAUAUAGCUUCUUUCUCGAUAUCAUAUUAAUCUUU
READOUT NUMBER: 5.80
--
BINDER: UCUCUUACUAUAUAUAUAUCUCUU (ssRNA) [Id_i_S1_P3E.3_K3.2_C3.2_[C-2A]_[T-1C]_H3.2_A3.1_F3.1_T3.2]
READOUT NUMBER: 6.34
--
BINDER: Ib_S2_P4E.1_K4.1_C4.1_H4.1_[A4C]_A4.1_[A6T]_F4.1_T4.1 (ssRNA) RNA: UUUGAUUAAUAUGAUAUCGUUCUUUCUUGUCUUUUAUUCUUUCUCGAUAUCAUAUUAAUCUUU
READOUT NUMBER: 7.54
--
BINDER: UCUCUUUGUAUAUAUACCUCUCUU (ssRNA) [Id_ii_S1_P3E.3_K3.2_C3.2_[C-2T]_[T-1G]_H3.2_A3.1_F3.1_T3.2_[T9C]_[A10C]]
READOUT NUMBER: 8.00
--
BINDER: Ib_S2_P5E.1_K5.1_C5.1_H5.1_A5.1_[T6A]_F5.1_[T8A]_T5.1 (ssRNA) RNA: UUUGAUUAAUAUGAUAUCGUUCUUUCUUGUAUAAAUAUUCUUUCUCGAUAUCAUAUUAAUCUUU
READOUT NUMBER: 8.29
--
BINDER: UCUCUUUAUAUAUAUUACUUCUCUU (ssRNA) [Id_ii_S1_P4E.3_K4.2_C4.2_[C-2T]_[T-1A]_H4.2_A4.1_F4.1_T4.2_[G10C]]
READOUT NUMBER: 7.69
--
BINDER: UCUCUUUGUACAACCUCUCUU (ssRNA) [Ic_S1_P4E.1_K4.1_C4.1_H4.1_A4.1_[T5C]_[T7A]_F4.1_[T8C]_[A9C]_T4.1]
READOUT NUMBER: 7.09
--
BINDER: Id_ii_S2_P4E.2_K4.1_C4.2_H4.1_A4.1_F4.1_T4.2_[T11C] (ssRNA) RNA: UUUGAUUAAUAUGAUAUCGUUCUUUCUCUUGUAUAUUAGCUUCUUUCUCGAUAUCAUAUUAAUCUUU
READOUT NUMBER: 9.56
--
BINDER: UCUCUUACUACACUUAUUAUAUCUCUU (ssRNA) [Id_iii_S1_P5E.7_K5.3_C5.3_[T-3A]_H5.3_A5.1_F5.1_T5.2]
READOUT NUMBER: 5.80
--
BINDER: Id_ii_S4_P3E.2_K3.1_C3.2_[C-2A]_[T-1C]_H3.1_A3.1_F3.1_T3.2_[A10G] (ssRNA) RNA: UUUGACAACUGAUCGUUCUUUCUACUGUAUAUAUGUUCUUUCUCGAUCAGUUGUCUUU
READOUT NUMBER: 7.41
